TEST_SYSTEM: T1, Human ACVR2A (human, UniProt P27037 20-135, limits assumed); also: test concentration or dose not given here
T1 construct: also called activin receptor, type II A
T1 sequence (P27037 20-135 limits assumed): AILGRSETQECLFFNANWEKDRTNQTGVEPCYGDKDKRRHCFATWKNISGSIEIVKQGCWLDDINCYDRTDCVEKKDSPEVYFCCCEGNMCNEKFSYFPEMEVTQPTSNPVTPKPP
ASSAY_EXPLANATION: ELISA
EXPERIMENTAL_READOUT: optical density

Field: example entries. Status: answers known.
373_E05 (antibody, V domains shown) VH: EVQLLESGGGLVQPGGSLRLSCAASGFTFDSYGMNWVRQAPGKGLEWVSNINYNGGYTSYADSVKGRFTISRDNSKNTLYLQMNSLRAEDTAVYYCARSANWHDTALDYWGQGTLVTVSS VL: DIQMTQSPSSLSASVGDRVTITCRASQSILSYVNWYQQKPGKAPKLLIYAVTSRASGVPSRFSGSGSGTDFTLTISSLQPEDFATYYCQQSYDLPLTFGGGTKVEIK = 3.54 OD
370_E03 (antibody, V domains shown) VH: EVQLLESGGGLVQPGGSLRLSCAASGFTFSSYGMNWVRQAPGKGLEWVSSINYNGGYKGYADSVKGRFTISRDNSKNTLYLQMNSLRAEDTAVYYCARSANWHDTALDYWGQGTLVTVSS VL: DIQMTQSPSSLSASVGDRVTITCRASQSILTYLNWYQQKPGKAPKLVIYYASNRASGVPSRFSGSGSGTDFTLTISSLQPEDFATYYCQQSYDSPLTFGGGTKVEIK = 3.64 OD

Field: next binder
Look at this binder and give its reported optical density. 371_A08 (antibody, V domains shown) VH: EVQLLESGGGLVQPGGSLRLSCAASGFTFSSYGMHWVRQAPGKGLEWVSSINYNGGYTSYADSVKGRFTISRDNSKNTLYLQMNSLRAEDTAVYYCARSANWHDTALDYWGQGTLVTVSS VL: DIQMTQSPSSLSASVGDRVTITCRASQSILSYLNWYQQKPGKAPKLVIYAATSRASGVPSRFSGSGSGTDFTLTISSLQPEDFATYYCQQSYELPLTFGGGTKVEIK
1.06 OD
